Test system: HDAC (HeLa nuclear extract, rich in HDAC activity)
Test: HDAC AK-501 colorimetric (Color de Lys) inhibition assay with HeLa nuclear extract
Format: biochemical, human
Conditions: Color de Lys substrate 0.2 mM final, 20 minutes at 37° C., reading at 405 nm, from straight line of 5 concentrations
Experimental: The inhibitory activity of the compounds obtained in the previous Examples 1, 2, 3 and 5 was evaluated, for which the HDAC AK-501 colorimetric titration kit for inhibition, supplied by Biomol, was used, following the indicated protocol. The process of the assay was carried out in two steps. […] In the second step, the previous mixture was treated with the Color de Lys® developer, which caused an increase in the quantifiable color intensity at 405 nm. […]
Readout Type: IC50
Give me the value, and tack the unit on after it.

[Q] Sample O=C(CCCCCCN1C(=O)c2ccccc2S1(=O)=O)NO — what was its IC50?
[A] 250 nM

[Q] Sample O=C(NO)c1ccc(CN2C(=O)c3ccccc3S2(=O)=O)cc1 — what was its IC50?
[A] 1150 nM

[Q] Sample O=C(CCCCCN1C(=O)c2ccccc2S1(=O)=O)NO — what was its IC50?
[A] 1500 nM

[Q] Sample O=C(CCCCCOc1nsc2ccccc12)NO — what was its IC50?
[A] 210 nM
